Target: T1, B Lymphocyte Stimulator, soluble form (human) (human, UniProt Q9Y275 134-285, biotinylated with NHS-biotin where used as biotinylated B Lymphocyte Stimulator)
T1 construct: Coated on plastic, captured on streptavidin plates, amine-coupled to a CM5 chip or free in solution, depending on the assay; also called BLyS; immobilized B Lymphocyte Stimulator
Test: phage ELISA
Observed property: binding result

Worked cases, answers included:
- Binder: "I071B03 (scFv) scFv: QVQLQQSGAEVKKPGASVKVSCKASGYTFTKYTMHWVRQAPGQGPEWMGWINGGSGDTKYSRKFQGRVTITKDTSASAAYMELSSLGSEDTALYYCARATYDPLTGYSFDGFDIWGQGTMVTVSSGGGGSGGGGSGGGGSQSVLTQPASVSGSPGQSITISCTGTSSDVGGYNYVSWYQQHPGKAPKLMIYEGSKRPSGVSNRFSGSKSGNTASLTISGLQAEDEADYYCSSYTTRSTRVFGGGTKLTVLD"
  binding result: "binds"
- Binder: "I025B06 (scFv) scFv: QVQLVQSGAEVKKPGSSVKVSCRASGGSFNHAISWVRQAPGRGLEWMGGILPMYGTANYAQKFQGRVTITADKLTNTVYMDLSRLRYEDTAVYYCARELGLSIVGATTGALDMWGKGTLVTVSSGGGGSGGGGSGGGGSAQSVLTQPPSVSAAPGQKVTISCSGSSSNIGNNYVSWYQQIPGTAPKLLIYENNKRPSGIPDRFSGSKSGASAALDITGLQTGDEADYYCGTWHSSQVVFGGGTKLTVLG"
  binding result: "binds"
- Binder: "I067B10 (scFv) scFv: QMQLVQSGAEVKKPGASVKVSCKASGYTFTSYYMHWVRQAPGQGLEWMGWINAGNSNTKYSQKFQGRVTITSDTSASTAYMELSGLRSEDTAVYYCARDRGAPNYDILTGYYAPAQGVAFDIWGKGTLATVSSGGGGSGGGGSGGGGSQSVLTQPPSVSAAPGQKVTISCSGSTSNIGNNYVSWYQQHPGKAPKLMIYDVSKRPSGVPDRFSGSKSGNSASLDISGLQSEDEADYYCAAWDDSLSEFLFGTGTKLTVLG"
  binding result: "binds"
- Binder: "I003C06 (scFv) scFv: QVQLVQSGAEVKKPGSSVKVSCRASGGSFNHAISWVRQAPGRGLEWMGGILPMYGTANYAQKFQGRVTITADKLTNTVYMDLSRLRYEDTAVYYCARELGLSIVGATTGALDMWGKGTLVTVSSGGGGSGGGGSGGGGSALPVLTQPPSVSVAPGQTATLTCGGTNFGRQSVHWYQQKPGQAPVLAIYHDDVRPSGIPERLSGSKSGNTATLTISRVEAGDEAAYYCQVWDSGSDVVVFGGGTKLTVLG"
  binding result: "binds"

Tell me the measured binding result of I072B09 (scFv) scFv: QVQLQQSGAEVKKPGASVKVSCRASGYTFTKYTMHWVRQAPGQGPEWMGWINGGSGDTKYSRKFQGRVTITKDTSASAAYMELSSLGSEDTALYYCARATYDPLTGYSFDGFDIWGQGTLVTVSSGGGGSGGGGSGGGGSSELTQDPAVSVALGQTVRITCQGDSLRSYYTNWFQQKPGQAPLLVVYAKNKRPSGIPDRFSGSSSGNTASLTITGAQAEDEADYYCNSRDSSGNHVVFGGGTKLTVLD , please.
binds
